System: Rat bone marrow stem cells (mesenchymal stem cells)
Assay: Cell proliferation-promoting activity, WST-8 colorimetry (OD450)
Assay type: cell-based
Settings: four days from start of incubation; WST-8, 2 hours; bFGF at 10 ng/mL
Where no end group is shown, it is not given here.
Metric Name: OD450 day 4
// response body must contain only the number

For orientation, consider the following solved cases.
>  <Seq>
TLDGGDIINALCFS KKRTLRKNDRKKR (TLDGGDIINALCFSKKRTLRKNDRKKR-NH2) [Sample 2]

>  <Study Target>
Rat bone marrow stem cells (mesenchymal stem cells)

>  <OD450 day 4>
2.259

$$$$
>  <Seq>
TLKERCLQVVRSLVK KKRTLRKNDRKKR (TLKERCLQVVRSLVKKKRTLRKNDRKKR) [Sample 1]

>  <Study Target>
Rat bone marrow stem cells (mesenchymal stem cells)

>  <OD450 day 4>
2.369

$$$$
>  <Seq>
YARAAARQARA TLKERCLQVVRSLVK (YARAAARQARATLKERCLQVVRSLVK) [Sample 5]

>  <Study Target>
Rat bone marrow stem cells (mesenchymal stem cells)

>  <OD450 day 4>
1.971

$$$$

Kindly note the recorded OD450 day 4 for KKRTLRKNDRKKR LLGNSSPRTQSPQNC (KKRTLRKNDRKKRLLGNSSPRTQSPQNC-NH2) [Sample 3] , which is 2.289

Kindly note the recorded OD450 day 4 for YARAAARQARA (YARAAARQARA-NH2) [Sample 10, reference compound] , which is 1.737

Kindly note the recorded OD450 day 4 for KKRTLRKNDRKKR (KKRTLRKNDRKKR-NH2) [Sample 9, reference compound] , which is 1.260

Kindly note the recorded OD450 day 4 for KKRTLRKNDRKKR TLKERCLQVVRSLVK (KKRTLRKNDRKKRTLKERCLQVVRSLVK) [Sample 4] , which is 2.410

Kindly note the recorded OD450 day 4 for YARAAARQARA SLQYLCRFVIRQYTR (YARAAARQARASLQYLCRFVIRQYTR-NH2) [Sample 8] , which is 1.828

Kindly note the recorded OD450 day 4 for WRRQARFK [Sample 11, reference compound] , which is 1.744

Kindly note the recorded OD450 day 4 for YGRKKRRQRRRTLKERCLQVVRSLVK (YGRKKRRQRRRTLKERCLQVVRSLVK-NH2) [Sample 7] , which is 2.279

Kindly note the recorded OD450 day 4 for WRRQARFK TLKERCLQVVRSLVK (WRRQARFKTLKERCLQVVRSLVK) [Sample 6] , which is 2.365
